System: CCRIS mutagenicity, Ames/micronucleus/aberration tests
Assay: CCRIS mutagenicity studies
Settings: Test System: AMES SALMONELLA TYPHIMURIUM; Strain/Indicator: TA100; Metabolic Activation: RAT, LIVER, S-9, PHENOBARBITAL AND 5,6-BENZOFLAVONE; Method: PREINCUBATION
Calls of active or inactive are those of the source. No rule for the calls is given here.
Measured Metric: mutagenic call

Consider the reported mutagenic call for these compounds:
| Compound Smiles | mutagenic call |
| --- | --- |
| COc1ccc(-c2noc(CC(=O)O)c2-c2ccc(OC)cc2)cc1 | inactive; negative |
| O=C1C=CC(=O)C(Cl)=C1 | inactive; negative |
| Cc1c(N)cccc1N=Nc1cccc(N)c1C | active; positive |
| O=C1C=C(O)c2ccccc2C1=O | inactive; negative |
| Clc1ccnc2ccccc12 | active; positive |

Please examine the following record next.
**Query** Return reported mutagenic call; argument: CC(=O)Nc1cccc(N)c1C(=O)O
**Result** inactive; negative

---

System: CCRIS mutagenicity, Ames/micronucleus/aberration tests
Assay: CCRIS mutagenicity studies
Conditions: Test System: AMES SALMONELLA TYPHIMURIUM; Strain/Indicator: TA1535; Metabolic Activation: RAT, LIVER, S-9, AROCLOR 1254 (10%); Method: PREINCUBATION
The source made the active and inactive calls. No rule for the calls is given here.
Choose one outcome from this list and give only that: t for active, f for inactive

**Query** What call does the record list for CC(Cl)(Cl)[N+](=O)[O-] ?
**Result** f

**Query** Item: O=Nc1ccc(O)cc1
**Result** f

**Query** Item: CNCCS(=O)(=O)O
**Result** f

**Query** Item: Cc1cccc(C#N)c1
**Result** f

**Query** Item: CC1CO1 (stereo not drawn)
**Result** t

**Query** Item: OCC(CO)(CBr)CBr
**Result** f

**Query** Item: CCCCCC
**Result** f

**Query** Item: c1ccc2c(c1)ccc1ccccc12
**Result** f

**Query** Item: CCCCCCCCOC(=O)c1ccccc1C(=O)OCCCCCCCC
**Result** f

**Query** Item: [Cl][Hg][Cl]
**Result** f

**Query** Item: CC(C#N)CCC#N (stereo not drawn)
**Result** f

**Query** Item: Nc1cccc(Cl)c1
**Result** f

**Query** Item: COC(=O)c1ccccc1C(=O)OC
**Result** f

**Query** Item: CC(Cl)Cl
**Result** f

**Query** Item: CN(C)C(=S)N(C)C
**Result** f

**Query** Item: CCN
**Result** f

**Query** Item: N[C@H](Cc1ccccc1)C(=O)O
**Result** f

**Query** Item: Clc1nc2ccccc2nc1Cl
**Result** f

**Query** Item: CC(C)CNCC(C)C
**Result** f

**Query** Item: Cc1cc(N=Nc2c(O)ccc3ccccc23)c(S(=O)(=O)O)cc1Cl
**Result** f

**Query** Item: CC(O)CCl (stereo not drawn)
**Result** t

**Query** Item: O.O.O.O.O.O.O=[N+]([O-])[O-].O=[N+]([O-])[O-].O=[N+]([O-])[O-].[La+3]
**Result** f

**Query** Item: O=C1C=C(O)c2ccccc2C1=O
**Result** f

---

Test system: CCRIS mutagenicity, Ames/micronucleus/aberration tests
Assay: CCRIS mutagenicity studies
Conditions: Test System: AMES SALMONELLA TYPHIMURIUM; Strain/Indicator: TA100; Metabolic Activation: NONE; Method: STANDARD PLATE
Calls of active or inactive are those of the source. How the calls were made is not given here.
Choose one outcome from this list and give only that: y (active), n (inactive)

**Query** What call does the record list for OCc1ccccc1 ?
**Result** n

**Query** Item: OCc1ccc2c3c(cccc13)-c1ccccc1-2
**Result** n

**Query** Item: CCC1(CC(=O)O)OCCc2c1[nH]c1c(C(C)O)cccc21 (centres undefined)
**Result** n

**Query** Item: CCN(CCCl)CCCNc1c2ccc(Cl)cc2nc2ccc(OC)nc12
**Result** y

**Query** Item: CC(=O)Nc1ccc(/C=C/C(=O)c2ccccc2)cc1
**Result** y

**Query** Item: CCOc1ccc(NC(C)=O)cc1
**Result** n

**Query** Item: CCC(C)c1ccc(/C=C/c2ccc([N+](=O)[O-])cc2)cc1 (centres undefined)
**Result** n

**Query** Item: CCN(CC)C(=O)Nc1ccc(OCC(O)CNC(C)(C)C)c(C(C)=O)c1 (centres undefined)
**Result** n

**Query** Item: NCCc1cnc[nH]1
**Result** n

**Query** Item: CC(=O)Nc1ccc(OC(=O)c2ccccc2OC(C)=O)cc1
**Result** n

**Query** Item: CC1(C)[C@H](C(=O)OCc2cccc(Oc3ccccc3)c2)[C@@H]1C=C(Cl)Cl
**Result** n

**Query** Item: Cc1c(/C=N/OCc2ccc(Cl)cc2Cl)c2cc([N+](=O)[O-])ccc2n1Cc1ccc(Cl)cc1
**Result** n

**Query** Item: c1ccc2c(c1)ccc1ccccc12
**Result** n

**Query** Item: FC(F)(F)c1cccc(Cl)c1
**Result** n

**Query** Item: COc1cccc2c1C(=O)c1c(O)c3c(c(O)c1C2=O)C[C@@](O)(C(C)=O)C[C@@H]3O
**Result** n

**Query** Item: CN(C)c1ccc(/C=C/c2ccc([N+](=O)[O-])cc2)cc1
**Result** n

**Query** Item: CCOC(=O)C(Cl)C(C)=O (centres undefined)
**Result** n

**Query** Item: O=C(Nc1ccc(F)cc1)c1csc([N+](=O)[O-])c1
**Result** y

**Query** Item: CC12CCC=C(C=O)C1(C=O)C2 (centres undefined)
**Result** y

**Query** Item: Nc1ccc(-c2ccc(N)c(O)c2)cc1O
**Result** y

**Query** Item: Nc1ccc2c(c1)[nH]c1ccccc12
**Result** n

**Query** Item: O=C1OCC(C(Br)Br)=C1Br
**Result** y

**Query** Item: CC(C)C(=O)N(O)c1ccc(Cl)cc1
**Result** n

**Query** Item: Cn1sc(Cl)cc1=O (tested in a mixture with another compound)
**Result** y

**Query** Item: CCOP(=O)(Oc1ccc([N+](=O)[O-])cc1)c1ccccc1 (centres undefined)
**Result** n

**Query** Item: ClCc1ccc2ccc3cc4ccccc4c4ccc1c2c34
**Result** n

**Query** Item: c1ccc2c(OC[C@@H]3CO3)cccc2c1
**Result** y

**Query** Item: CN1CCN(C2=Nc3ccccc3Oc3ccc(Cl)cc32)CC1
**Result** n

**Query** Item: CCCCOc1cc([N+](=O)[O-])ccc1C(=O)NOC(C)=O
**Result** y

**Query** Item: O=C(c1ccc([N+](=O)[O-])cc1)n1ncc(Cl)c(Cl)c1=O
**Result** y

**Query** Item: Cc1ccc2cc3c(c4c2c1CC4)C1OC1c1ccccc1-3 (centres undefined)
**Result** y

**Query** Item: C[C@@H]1O[C@@H]1C
**Result** y

**Query** Item: C=CCc1[c-]cccc1.C=CCc1[c-]cccc1.[Pt+2].c1ccc(P(c2ccccc2)c2ccccc2)cc1.c1ccc(P(c2ccccc2)c2ccccc2)cc1
**Result** n

**Query** Item: COS(C)(=O)=O
**Result** y

**Query** Item: CC(=O)OCc1c2ccccc2c(C)c2ccccc12
**Result** y

**Query** Item: O=C1CNC(=O)N1
**Result** n

**Query** Item: CCC(=O)Nc1snc2ccccc12
**Result** n

**Query** Item: OC/C=C/Cl
**Result** n

**Query** Item: CCN(CCCl)CCCNc1c2ccccc2nc2c1ccc1cccnc12
**Result** y

**Query** Item: O=C(Nc1cccc(Cl)c1)c1csc([N+](=O)[O-])c1
**Result** y

**Query** Item: N=c1c2ncn(C(c3ccccc3)(c3ccccc3)c3ccccc3)c2ncn1O
**Result** n

**Query** Item: ClCCNCCCNc1c2ccccc2nc2c1ccc1cccnc12
**Result** y

**Query** Item: O=[N+]([O-])C1=Cc2cccc3cccc(c23)O1
**Result** y

**Query** Item: O=[N+]([O-])c1ccc(-c2nc(NCCO)c3ccccc3n2)s1
**Result** y

**Query** Item: N[C@@H](Cc1ccc(N(CCCl)CCCl)cc1)C(=O)O
**Result** y

**Query** Item: COc1cc2c(cc1O)CCN[C@]21CS[C@@H]2c3c(OC(C)=O)c(C)c4c(c3[C@H](COC1=O)N1[C@@H]2[C@H]2c3c(cc(C)c(OC)c3O)C[C@@H]([C@@H]1O)N2C)OCO4
**Result** n

**Query** Item: O=[N+]([O-])c1ccc(N=Nc2ccc(N(CCO)CCO)cc2)c([N+](=O)[O-])c1
**Result** y

**Query** Item: O=c1[nH]cc2ccc3cccc4ccc1c2c34
**Result** n

**Query** Item: Nc1ccccc1
**Result** n
